Test system: MCF10A
Experiment: one-nucleolus phenotype percent effect (relative to siNT 0% and siNOL11 100%); higher = more cells with one nucleolus (ribosome biogenesis inhibition)
Details: 20 nM; 72 h
Provide the reported one-nucleolus phenotype percent effect of each item.
# number only, unit % dropped from output

Short answer for UGGCCCAAGACCUCAGACC [hsa-miR-7155-3p] : one-nucleolus phenotype percent effect was 11.3

Short answer for GCUGGGAAGGCAAAGGGACGU [hsa-miR-204-3p] : one-nucleolus phenotype percent effect was -9.16

Short answer for UUCGCGGGCGAAGGCAAAGUC [hsa-miR-3124-5p] : one-nucleolus phenotype percent effect was 3.56

Short answer for UCUGUGGAGUGGGGUGCCUGU [hsa-miR-7114-5p] : one-nucleolus phenotype percent effect was 15

Short answer for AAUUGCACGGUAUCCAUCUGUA [hsa-miR-363-3p] : one-nucleolus phenotype percent effect was 5.76

Short answer for GUAGGUGACAGUCAGGGGCGG [hsa-miR-6800-5p] : one-nucleolus phenotype percent effect was 1.11

Short answer for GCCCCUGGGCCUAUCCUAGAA [hsa-miR-331-3p] : one-nucleolus phenotype percent effect was 6.3

Short answer for ACCCUCGUCAGGUCCCCGGGG [hsa-miR-4655-3p] : one-nucleolus phenotype percent effect was -5.11

Short answer for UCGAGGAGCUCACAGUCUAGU [hsa-miR-151a-5p] : one-nucleolus phenotype percent effect was -6

Short answer for CUGCAAAGGGAAGCCCUUUC [hsa-miR-527] : one-nucleolus phenotype percent effect was 46.6

Short answer for GAAGCUCUCCCCUCCCCGCAG [hsa-miR-6796-3p] : one-nucleolus phenotype percent effect was -14.7

---

Provide the reported one-nucleolus phenotype percent effect of each item.
System: MCF10A
Assay: one-nucleolus phenotype percent effect (relative to siNT 0% and siNOL11 100%); higher = more cells with one nucleolus (ribosome biogenesis inhibition)
Settings: 20 nM; 72 h
# number only, unit % dropped from output

Short answer for UACCCUGUAGAACCGAAUUUGUG [hsa-miR-10b-5p] : one-nucleolus phenotype percent effect was 25.8

Short answer for CUGGGGGUGGGGGGCUGGGCGU [hsa-miR-6803-5p] : one-nucleolus phenotype percent effect was -13.5

Short answer for AGGGCUGGACUCAGCGGCGGAGCU [hsa-miR-5001-5p] : one-nucleolus phenotype percent effect was 23.3

Short answer for UAAGGCACGCGGUGAAUGCC [hsa-miR-124-3p] : one-nucleolus phenotype percent effect was 70.4

Short answer for AGGGGGUAGAAAGUGGCUGAAG [hsa-miR-6835-5p] : one-nucleolus phenotype percent effect was 11.4

Short answer for GGGACUAGGAUGCAGACCUCC [hsa-miR-6503-3p] : one-nucleolus phenotype percent effect was 9.94

Short answer for UUAGAGGCUGGAAUAGAGAUUCU [hsa-miR-6866-5p] : one-nucleolus phenotype percent effect was 9.98

Short answer for AAUCAUUCACGGACAACACUU [hsa-miR-382-3p] : one-nucleolus phenotype percent effect was -25.4

Short answer for UACUCCAGAGGGCGUCACUCAUG [hsa-miR-508-5p] : one-nucleolus phenotype percent effect was 19.6

Short answer for AUGCGAGGAUGCUGACAGUG [hsa-miR-4737] : one-nucleolus phenotype percent effect was 35.7

Short answer for UGGCCCUGACUGAAGACCAGCAGU [hsa-miR-1291] : one-nucleolus phenotype percent effect was 5.12

Short answer for CUAGGUAUGGUCCCAGGGAUCC [hsa-miR-331-5p] : one-nucleolus phenotype percent effect was -17.6

Short answer for AUUGAAACCUCUAAGAGUGGA [hsa-miR-510-3p] : one-nucleolus phenotype percent effect was -2.4

Short answer for UUAUUGCUUAAGAAUACGCGUAG [hsa-miR-137] : one-nucleolus phenotype percent effect was 47.7

Short answer for AACUGGCCUACAAAGUCCCAGU [hsa-miR-193a-3p] : one-nucleolus phenotype percent effect was 29.5

Short answer for UCCCUGAGCAAAGCCAC [hsa-miR-4319] : one-nucleolus phenotype percent effect was -1.9

Short answer for UACACAAGAAAACCAAGGCUCA [hsa-miR-4801] : one-nucleolus phenotype percent effect was -13.4

Short answer for AGAAGGCACUAUGAGAUUUAGA [hsa-miR-605-3p] : one-nucleolus phenotype percent effect was 66.4

Short answer for CUUAGCAGGUUGUAUUAUCAUU [hsa-miR-374b-3p] : one-nucleolus phenotype percent effect was -6.79

Short answer for CCAGGGGGAUGGGCGAGCUUGGG [hsa-miR-6798-5p] : one-nucleolus phenotype percent effect was -16.7

Short answer for GUUAGGGCCAACAUCUCUUGG [hsa-miR-2909] : one-nucleolus phenotype percent effect was -6.14

Short answer for CCAGGAGAUCCAGAGAGAAU [hsa-miR-4768-3p] : one-nucleolus phenotype percent effect was 0.373

Short answer for GAGGGUCUUGGGAGGGAUGUGAC [hsa-miR-1182] : one-nucleolus phenotype percent effect was -20.9

Short answer for UUUAAGAAAACACCAUGGAGAU [hsa-miR-3658] : one-nucleolus phenotype percent effect was -25.1

Short answer for GAAGACUUCUUGGAUUACAGGGG [hsa-miR-8087] : one-nucleolus phenotype percent effect was 2.61

Short answer for UGCCCUUCUCUCCUCCUGCCU [hsa-miR-6886-3p] : one-nucleolus phenotype percent effect was -6.37

Short answer for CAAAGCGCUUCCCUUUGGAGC [hsa-miR-518d-3p] : one-nucleolus phenotype percent effect was 42.6

Short answer for CCUGGACACCGCUCAGCCGGCCG [hsa-miR-4638-3p] : one-nucleolus phenotype percent effect was -15.8

Short answer for GGGACCAUCCUGCCUGCUGUGG [hsa-miR-3619-3p] : one-nucleolus phenotype percent effect was -10.4

Short answer for AGCUGUAAUUAGUCAGUUUUCU [hsa-miR-1537-5p] : one-nucleolus phenotype percent effect was -20.9

Short answer for CGAGGGGUAGAAGAGCACAGGGG [hsa-miR-6738-5p] : one-nucleolus phenotype percent effect was -8.33

Short answer for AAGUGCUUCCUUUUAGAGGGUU [hsa-miR-520f] : one-nucleolus phenotype percent effect was 4.79

Short answer for UGAGGUAGUAGUUUCUU [hsa-miR-4500] : one-nucleolus phenotype percent effect was -31.4

Short answer for CACCUUGCGCUACUCAGGUCUG [hsa-miR-3200-3p] : one-nucleolus phenotype percent effect was -8.76

Short answer for GUGGACCUGGCUGGGAC [hsa-miR-4535] : one-nucleolus phenotype percent effect was -11

Short answer for UCGGGGAUCAUCAUGUCACGAGA [hsa-miR-542-5p] : one-nucleolus phenotype percent effect was 1.02

Short answer for UGGGGACGUAGCUGGCCAGACAG [hsa-miR-3191-3p] : one-nucleolus phenotype percent effect was 32.8

Short answer for AUAGUCCGAGUAACGUCGGGGC [hsa-miR-6723-5p] : one-nucleolus phenotype percent effect was 16.5

Short answer for UGGGGGAGCCAUGAGAUAAGAGCA [hsa-miR-4723-5p] : one-nucleolus phenotype percent effect was 21.2

Short answer for UCUGUGCUUCACCCCUACCCAG [hsa-miR-6737-3p] : one-nucleolus phenotype percent effect was 3.19

Short answer for AGGGUGGGGCUGGAGGUGGGGCU [hsa-miR-6756-5p] : one-nucleolus phenotype percent effect was 3.98

---

Test system: MCF10A
Experiment: percent viability (nuclei count relative to siNT); higher = more viable cells
Details: 20 nM; 72 h
ENDPOINT NAME: percent viability (%)
# number only, unit % dropped from output

Short answer for AGAGAUGCCGCCUUGCUCCUU [hsa-miR-4708-5p] : percent viability was 45.7

Short answer for UUAGCUUAAGGAGUACCAGAUC [hsa-miR-5579-3p] : percent viability was 65.6

Short answer for UUGCCAUACAUAGACUUUAUU [hsa-miR-5590-5p] : percent viability was 44.8

Short answer for UCACAACAACCUUGCAGGGUAGA [hsa-miR-5003-5p] : percent viability was 80.1

Short answer for AAAACUGUAAUUACUUUUGUAC [hsa-miR-548g-3p] : percent viability was 165

Short answer for CCGGCAUGUCCAGGGCA [hsa-miR-4304] : percent viability was 25.4

Short answer for ACAUCCUGCUCCACAGGGCAGAGG [hsa-miR-4793-5p] : percent viability was 52.3

Short answer for CCAGUCCUGUGCCUGCCGCCU [hsa-miR-1910] : percent viability was 100

Short answer for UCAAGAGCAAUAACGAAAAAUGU [hsa-miR-335-5p] : percent viability was 79.4

Short answer for AUCGGGAAUGUCGUGUCCGCCC [hsa-miR-425-3p] : percent viability was 109

Short answer for UCACCCUGCAUCCCGCACCCAG [hsa-miR-3620-3p] : percent viability was 77

Short answer for CAGUUCUGCUGUUCUGACUCUAG [hsa-miR-6874-3p] : percent viability was 28.9

Short answer for CAUCAGAAUUCAUGGAGGCUAG [hsa-miR-2115-3p] : percent viability was 39

Short answer for UCAUUAUAUGUAUGAUCUGGAC [hsa-miR-4528] : percent viability was 57.6

Short answer for UGCAACUUACCUGAGUCAUUGA [hsa-miR-891b] : percent viability was 41.4

Short answer for GGCUCCUCCUCUCAGGAUGUG [hsa-miR-4268] : percent viability was 41.5

Short answer for CAGCACCCUGUGGCUCCCACAG [hsa-miR-6871-3p] : percent viability was 50.1

Short answer for GUACCUUCUGGUUCAGCUAGU [hsa-miR-4724-3p] : percent viability was 82.8

Short answer for GCACCCAGGCAAGGAUUCUG [hsa-miR-500b-3p] : percent viability was 76.8

Short answer for CCUGGUGGCUUCCUUUU [hsa-miR-4456] : percent viability was 23.6

Short answer for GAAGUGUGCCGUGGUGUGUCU [hsa-miR-595] : percent viability was 30.6

Short answer for CUGCCUGUUCUUCCACUCCAG [hsa-miR-6514-3p] : percent viability was 9.75

Short answer for UUCACAGGGAGGUGUCAU [hsa-miR-513a-5p] : percent viability was 68

Short answer for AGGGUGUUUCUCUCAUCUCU [hsa-miR-609] : percent viability was 74

Short answer for GAAGUUGCCCAUGUUAUUUUCG [hsa-miR-495-5p] : percent viability was 42.2

Short answer for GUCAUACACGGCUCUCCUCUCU [hsa-miR-485-3p] : percent viability was 54.4

Short answer for GUGGGAUUUCUGAGUAGCAUC [hsa-miR-5089-5p] : percent viability was 36.5

Short answer for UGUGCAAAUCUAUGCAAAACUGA [hsa-miR-19a-3p] : percent viability was 141

Short answer for UGCGGGGACAGGCCAGGGCAUC [hsa-miR-4749-5p] : percent viability was 21.9
